- assay_protocol: Plasma pharmacokinetics after a single dose of liquid or solid oat product (compartmental PK model)
- Format: in vivo, humans
- condition_set: solid, Table S1 compartmental model
measurement_name: ka, population estimate (RSE%)

The following molecules have reported results that may help.
| molecule | ka, population estimate (RSE%) |
| --- | --- |
| O=C(/C=C/C=C/c1ccc(O)cc1)Nc1ccc(O)cc1C(=O)O | 1.5 (10) 1/h |
| O=C(/C=C/c1ccc(O)cc1)Nc1ccc(O)cc1C(=O)O | 1.6 (10) 1/h |
| O=C(/C=C/c1ccc(O)c(O)c1)Nc1ccc(O)cc1C(=O)O | 2.8 (10) 1/h |

Now consider a different molecule.
Sample CC1OC(OC2C(OC3CCC4(C)C(=CCC5C4CCC4(C)C5CC5OC6(CCC(C)(COC7OC(CO)C(O)C(O)C7O)O6)C(C)C54)C3)OC(CO)C(OC3OC(CO)C(O)C(OC4OC(CO)C(O)C(O)C4O)C3O)C2O)C(O)C(O)C1O (stereo not shown) [AVE B, Avenacoside B] — what was its ka, population estimate (RSE%)? 0.45 (22) 1/h

----------
- assay_protocol: Plasma pharmacokinetics after a single dose of liquid or solid oat product (compartmental PK model)
- Format: in vivo, humans
- condition_set: liquid, Table S1 compartmental model
Listed compounds paired with reported ka, population estimate (RSE%)

| compound | ka, population estimate (RSE%) |
| --- | --- |
| COc1cc(/C=C/C=C/C(=O)Nc2ccc(O)cc2C(=O)O)ccc1O | 3.6 (10) 1/h |

Sample `O=C(/C=C/c1ccc(O)cc1)Nc1ccc(O)cc1C(=O)O` — what was its ka, population estimate (RSE%)? 2.8 (9) 1/h

Sample `O=C(/C=C/C=C/c1ccc(O)cc1)Nc1ccc(O)cc1C(=O)O` — what was its ka, population estimate (RSE%)? 2.4 (9) 1/h

Sample `COc1cc(/C=C/C(=O)Nc2ccc(O)cc2C(=O)O)ccc1O` — what was its ka, population estimate (RSE%)? 4.8 (3) 1/h

Sample `O=C(/C=C/c1ccc(O)c(O)c1)Nc1ccc(O)cc1C(=O)O` — what was its ka, population estimate (RSE%)? 5.9 (18) 1/h

Sample CC1OC(OC2C(OC3CCC4(C)C(=CCC5C4CCC4(C)C5CC5OC6(CCC(C)(COC7OC(CO)C(O)C(O)C7O)O6)C(C)C54)C3)OC(CO)C(OC3OC(CO)C(O)C(O)C3O)C2O)C(O)C(O)C1O (stereo not shown) [AVE A, Avenacoside A] — what was its ka, population estimate (RSE%)? 1.4 (3) 1/h

Sample CC1OC(OC2C(OC3CCC4(C)C(=CCC5C4CCC4(C)C5CC5OC6(CCC(C)(COC7OC(CO)C(O)C(O)C7O)O6)C(C)C54)C3)OC(CO)C(OC3OC(CO)C(O)C(OC4OC(CO)C(O)C(O)C4O)C3O)C2O)C(O)C(O)C1O (stereo not shown) [AVE B, Avenacoside B] — what was its ka, population estimate (RSE%)? 0.41 (9) 1/h

----------
- assay_protocol: Plasma pharmacokinetics after a single dose of liquid or solid oat product (compartmental PK model)
- Format: in vivo, humans
- condition_set: both sexes, human, plasma, oral, 196 mL of oat drink; liquid, single dose, elimination rate (Table 2); read-out: ke (converted)
measurement_name: k el (s⁻¹)
A number alone suffices; assume s⁻¹.

The following molecules have reported results that may help.
| molecule | unit_symbol | measured_value |
| --- | --- | --- |
| CC1OC(OC2C(OC3CCC4(C)C(=CCC5C4CCC4(C)C5CC5OC6(CCC(C)(COC7OC(CO)C(O)C(O)C7O)O6)C(C)C54)C3)OC(CO)C(OC3OC(CO)C(O)C(O)C3O)C2O)C(O)C(O)C1O (stereo not shown) [AVE A, Avenacoside A] | s⁻¹ | 6.39e-05 |
| COc1cc(/C=C/C=C/C(=O)Nc2ccc(O)cc2C(=O)O)ccc1O | s⁻¹ | 0.000144 |
| O=C(/C=C/c1ccc(O)c(O)c1)Nc1ccc(O)cc1C(=O)O | s⁻¹ | 0.000122 |

Sample CC1OC(OC2C(OC3CCC4(C)C(=CCC5C4CCC4(C)C5CC5OC6(CCC(C)(COC7OC(CO)C(O)C(O)C7O)O6)C(C)C54)C3)OC(CO)C(OC3OC(CO)C(O)C(OC4OC(CO)C(O)C(O)C4O)C3O)C2O)C(O)C(O)C1O (stereo not shown) [AVE B, Avenacoside B] — what was its k el? 7.5e-05

Sample `O=C(/C=C/C=C/c1ccc(O)cc1)Nc1ccc(O)cc1C(=O)O` — what was its k el? 7.78e-05

Sample `COc1cc(/C=C/C(=O)Nc2ccc(O)cc2C(=O)O)ccc1O` — what was its k el? 6.11e-05

Sample `O=C(/C=C/c1ccc(O)cc1)Nc1ccc(O)cc1C(=O)O` — what was its k el? 0.000144

src = paper PMC12418703
